Below, each entry is listed alongside its reported inhibition.
- TARGET UNDER TEST: Tyrosine-protein kinase JAK1 (Homo sapiens) (UniProt P23458);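 note: each value is a mean inhibition of JAK1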
- Sequence (P23458 whole entry): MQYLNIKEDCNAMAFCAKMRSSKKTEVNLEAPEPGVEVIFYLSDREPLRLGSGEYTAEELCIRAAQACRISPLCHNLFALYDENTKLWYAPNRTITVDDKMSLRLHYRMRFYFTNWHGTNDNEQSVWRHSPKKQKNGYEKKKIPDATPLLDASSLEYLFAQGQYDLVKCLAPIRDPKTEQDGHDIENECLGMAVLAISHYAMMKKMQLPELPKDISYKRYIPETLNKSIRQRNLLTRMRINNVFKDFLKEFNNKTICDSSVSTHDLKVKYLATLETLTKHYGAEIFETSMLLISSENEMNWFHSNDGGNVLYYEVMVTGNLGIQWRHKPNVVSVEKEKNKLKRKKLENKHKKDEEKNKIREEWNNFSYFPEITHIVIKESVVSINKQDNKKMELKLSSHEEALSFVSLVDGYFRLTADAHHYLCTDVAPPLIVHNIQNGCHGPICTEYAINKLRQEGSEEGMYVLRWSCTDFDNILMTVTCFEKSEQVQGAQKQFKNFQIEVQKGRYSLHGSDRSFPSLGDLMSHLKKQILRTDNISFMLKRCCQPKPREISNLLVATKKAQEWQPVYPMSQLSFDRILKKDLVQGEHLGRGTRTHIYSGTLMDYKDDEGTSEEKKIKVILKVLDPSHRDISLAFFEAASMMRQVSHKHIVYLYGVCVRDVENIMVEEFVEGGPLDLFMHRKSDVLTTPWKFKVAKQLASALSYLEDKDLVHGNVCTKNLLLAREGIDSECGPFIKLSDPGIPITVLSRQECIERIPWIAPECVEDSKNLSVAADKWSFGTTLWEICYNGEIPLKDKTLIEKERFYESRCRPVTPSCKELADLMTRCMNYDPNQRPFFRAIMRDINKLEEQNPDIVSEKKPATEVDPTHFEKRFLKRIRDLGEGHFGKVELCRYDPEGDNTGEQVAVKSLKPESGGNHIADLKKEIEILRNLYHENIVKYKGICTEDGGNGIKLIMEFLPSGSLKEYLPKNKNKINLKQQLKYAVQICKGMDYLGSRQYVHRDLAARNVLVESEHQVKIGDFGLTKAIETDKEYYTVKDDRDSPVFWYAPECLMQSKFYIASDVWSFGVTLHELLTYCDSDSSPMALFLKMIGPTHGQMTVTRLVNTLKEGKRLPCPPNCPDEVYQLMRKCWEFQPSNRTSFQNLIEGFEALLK
- CONDITION DETAILS: at 1 µM

{"columns": ["MOLECULE", "TARGET UNDER TEST", "inhibition, %"],
 "data": [
  ["CNC(=O)c1cncc(/C=C/c2c(Cl)cccc2Cl)c1", "Tyrosine-protein kinase JAK1 (Homo sapiens) (UniProt P23458)", 2.48],
  ["CC(C)=Cc1cccc2c1/C(=N/Nc1ccc(S(N)(=O)=O)cc1)C(=O)N2", "Tyrosine-protein kinase JAK1 (Homo sapiens) (UniProt P23458)", 17.6],
  ["COc1ccccc1Nc1ncc(-c2ccccc2)o1", "Tyrosine-protein kinase JAK1 (Homo sapiens) (UniProt P23458)", 5.2],
  ["COc1ccc2cc(-c3c(-c4ccncc4)nc(-c4ccc([S+](C)[O-])cc4)n3C)ccc2c1 (stereo not given)", "Tyrosine-protein kinase JAK1 (Homo sapiens) (UniProt P23458)", -2.81],
  ["NC(=O)c1cccc(Nc2nccc(Nc3cccc4[nH]ncc34)n2)c1", "Tyrosine-protein kinase JAK1 (Homo sapiens) (UniProt P23458)", 19.6],
  ["COc1cc2ncn(-c3cc(O[C@@H](C)c4ccccc4Cl)c(C(N)=O)s3)c2cc1OC", "Tyrosine-protein kinase JAK1 (Homo sapiens) (UniProt P23458)", 3.27],
  ["Nc1nc(-c2ccccn2)c(-c2ccc3ncccc3n2)s1", "Tyrosine-protein kinase JAK1 (Homo sapiens) (UniProt P23458)", 4.22],
  ["Cc1ccc(C(=O)NC2CCCCC2)cc1-c1ccc(C(=O)NCC2CC2)cc1", "Tyrosine-protein kinase JAK1 (Homo sapiens) (UniProt P23458)", 9.1],
  ["CC1=C(C(=O)Nc2ccc3[nH]ncc3c2)C(c2ccc(Cl)c(Cl)c2)CC(=O)N1 (stereo not given)", "Tyrosine-protein kinase JAK1 (Homo sapiens) (UniProt P23458)", 36.6],
  ["O=C1NC(=O)C(c2ccccc2Cl)=C1Nc1cccc(O)c1", "Tyrosine-protein kinase JAK1 (Homo sapiens) (UniProt P23458)", 0.51]
]}
